Data provenance: paper doi:10.1101/2025.04.28.650926

# TESTED ON: HSF1-ΔLZ4-TAD (human, UniProt Q00613 1-383)
# Sequence (Q00613 1-383, stated change not applied): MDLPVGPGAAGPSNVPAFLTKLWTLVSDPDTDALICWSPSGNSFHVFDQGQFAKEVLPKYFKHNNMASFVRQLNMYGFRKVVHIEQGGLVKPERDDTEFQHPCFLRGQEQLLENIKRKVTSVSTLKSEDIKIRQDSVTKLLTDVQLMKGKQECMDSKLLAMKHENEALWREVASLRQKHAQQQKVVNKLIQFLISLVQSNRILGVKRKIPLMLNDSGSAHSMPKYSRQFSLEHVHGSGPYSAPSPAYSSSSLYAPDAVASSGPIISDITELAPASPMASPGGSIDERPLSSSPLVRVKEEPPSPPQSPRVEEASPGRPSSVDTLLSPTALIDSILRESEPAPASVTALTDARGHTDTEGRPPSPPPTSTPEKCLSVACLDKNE
# EXPERIMENT: fluorescence polarization
OBSERVED PROPERTY: Kd (nM)
Respond numerically; units are nM and should not be typed.

// query Item under review: HSE (canonical three-site) (dsDNA) DNA 1: CCTGGAATATTCCCGAACTGGC DNA 2: GCCAGTTCGGGAATATTCCAGG . Reported Kd?
// result 12.9
